Assay System: TYK2 JH1 catalytic (human)
Experiment: radiometric filter-binding kinase assay, Kinase HotSpot
Condition Set: compound 0.5 µM; ATP 10 µM
Listed here: items and their measured residual activity.

| Chem Smiles | residual activity |
| --- | --- |
| CCCCc1c(-c2ccc(O)cc2)[nH]c2nccnc12 | 43.4% |
| CCOc1cc2ncnc(Nc3cccc(Br)c3)c2cc1OCC | 107% |
| O=c1cc(N2CCOCC2)oc2c(-c3ccccc3)cccc12 | 103% |
| CCc1nc(-c2ccc(OC)cc2)[nH]c1-c1ccncc1 | 106% |
| O=c1[nH]c2ccccc2n1C1CCN(Cc2ccc(-c3nc4cc5[nH]cnc5cc4nc3-c3ccccc3)cc2)CC1 | 101% |
| N#Cc1c(NC(=O)c2cccc3ccccc23)sc2c1CCCC2 | 100% |
| COc1cc2c(Nc3ccc(Br)cc3F)ncnc2cc1OCC1CCN(C)CC1 | 97.7% |
| O=c1c2ccccc2[nH]c(=S)n1CCN1CCC(=C(c2ccc(F)cc2)c2ccc(F)cc2)CC1 | 107% |
| O=S(=O)(NCCNC/C=C/c1ccc(Br)cc1)c1cccc2cnccc12 | 103% |
| N#CCCc1ccc2c(c1)-c1[nH]c3ccc([N+](=O)[O-])cc3c1CC(=O)N2 | 48.1% |
| O=C(c1ccccc1)c1ccc(N2CCOCC2)cc1O | 110% |
